System: CEM cells HIV-1 protection, formazan growth assay
Assay: NCI AIDS Antiviral Assay;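 active = compounds giving half or more protection of infected cells from virus-caused growth loss, again on retest; inactive = the rest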
Your answer must be one of the following: active, inactive

Compound	Group Label
Cc1ccccc1-n1c(=O)c2ncn(CCCl)c2n(-c2ccccc2C)c1=S	inactive
NC1=NC2=C(CCCC2)C(c2cccs2)S1 (configuration not stated)	inactive
COC(=O)c1cc2ccccc2c(CS(=O)(=O)O)c1O	inactive

*Q* Per the records of this test, what outcome belongs to CC(C)(C)OC(=O)N1N=NC2C3CC(=O)C(O3)C21 (configuration not stated) ?
*A* inactive

*Q* Per the records of this test, what outcome belongs to CCCCCCCCC/C=C/C=C/C(=O)NCC(=O)NC1C(O)C(O)C(Nc2ncnc3nc[nH]c23)OC1C(O)CO (configuration not stated) ?
*A* inactive

*Q* Per the records of this test, what outcome belongs to CCCCN(CCCC)CC(C(=O)Nc1ccccc1)/C(C)=N\NC(=O)c1ccncc1 (configuration not stated) ?
*A* inactive

*Q* Per the records of this test, what outcome belongs to CCSc1ccc2c3c(cccc13)C(=O)N(CCc1ccccn1)C2=O ?
*A* inactive

*Q* Per the records of this test, what outcome belongs to O=C1C=C(c2ccccc2)Sc2ccccc2N1 ?
*A* inactive

###

Test system: CEM cells HIV-1 protection, formazan growth assay
Test: NCI AIDS Antiviral Assay
Measured EC50 by item

Compound	EC50
Cc1ccc(/C=C(\NC(=O)c2ccccc2)c2nc3ccccc3[nH]2)cc1	> 74.1 µM
Nc1ccn(C2CCC3(CO)CC23)c(=O)n1 (stereo unspecified)	> 50.1 µM

EC50 in this record for O=C([O-])C1([n+]2c(-c3ccccc3)cc(-c3ccccc3)cc2-c2ccccc2)CC1 : > 200 µM

EC50 in this record for COc1ccc2c(=O)c3ccccc3oc2c1 : > 200 µM

EC50 in this record for O=c1cc(N2CCOCC2)n2ccccc2n1 : > 200 µM

EC50 in this record for CSC1=Nc2ccccc2N(C)c2c1c(-c1ccccc1)nn2C : > 200 µM

###

Measured pEC50 by item
System: CEM cells HIV-1 protection, formazan growth assay
Test: NCI AIDS Antiviral Assay
pEC50: −log10 of the molar value.

Compound	Result
Oc1c(OCc2nnc(CCCCCCCCc3nnc(COc4ccc5ccccc5c4O)n3Nc3ccccc3)n2Nc2ccccc2)ccc2ccccc12	< 5.70

pEC50 in this record for O=[N+]([O-])c1ccc(-n2cccc2)cc1 : < 3.70

pEC50 in this record for Cc1ccc2nc(NC(=O)/C(Cc3nc4ccc(Cl)cc4[nH]c3=O)=N\NC(C)(C)C)sc2c1 : < 4.13

###

Measured EC50 by item
System: CEM cells HIV-1 protection, formazan growth assay
Assay: NCI AIDS Antiviral Assay

Molecule	Assay Target	Reported Property	Result
COC(=O)C(Br)C1CCc2ccccc21 (stereo not drawn)	CEM cells HIV-1 protection, formazan growth assay	EC50	> 251 µM

EC50 in this record for CCc1nc(N)nc(N)c1-c1ccc(Cl)cc1 : > 1 µM

EC50 in this record for COc1ccc2oc3cc(O)cc(OC)c3c(=O)c2c1O : > 200 µM

EC50 in this record for CCCCNC(=S)Nc1nc(C(=O)NNC(=S)NCC)cs1 : > 200 µM

EC50 in this record for CCC1c2c(cc(=O)[nH]c2O)C(=O)N1Cc1ccccc1 (stereo not drawn) : > 398 µM

EC50 in this record for COC1=C(NC(C)=O)C(=O)c2nc3n(c2C1=O)CCC3 : > 200 µM

EC50 in this record for Cc1ccc(-c2cc(-c3ccco3)c(C#N)c(=S)[nH]2)cc1 : > 200 µM

###

Tested on: CEM cells HIV-1 protection, formazan growth assay
Test: NCI AIDS Antiviral Assay
Reported Property: EC50

// known answers, use as guide
Compound	EC50
NC(N)=NS(=O)(=O)c1ccc(NC(=O)c2cccc3c(N)c4ccccc4nc23)cc1	> 51.3 µM
O=C(CC1(O)C(=O)Nc2c(Cl)ccc(Cl)c21)c1ccc(Cl)cc1 (stereo unspecified)	> 51.3 µM
Cn1c(-c2cccs2)cc(-c2cccs2)c1-c1cccs1	> 200 µM

Form field, EC50 with CEM cells HIV-1 protection, formazan growth assay, item CCc1ccccc1NC(=O)C1=C(C)NC(C)=C(C(=O)Nc2ccccc2CC)C1c1ccccc1Cl : > 10 µM

Form field, EC50 with CEM cells HIV-1 protection, formazan growth assay, item COC1OC(CS)C(N)C1OS(C)(=O)=O (stereo unspecified) : > 200 µM

###

Test system: CEM cells HIV-1 protection, formazan growth assay
Test: NCI AIDS Antiviral Assay
Reported Property: EC50

// known answers, use as guide
Compound	EC50
COC(OC)C1(c2ccccc2)Oc2ccccc2C1=O (stereo not given)	> 166 µM
COC(=O)c1ccc(NCC2=CC(=O)C=CC2=O)cc1	> 200 µM
COC(=O)/C(=N/O)C(C(=O)C=C(C)C)C(=O)C(=O)Nc1nc2ccc([N+](=O)[O-])cc2s1 (stereo not given)	> 41.7 µM
[O-][n+]1onc2c1CCC(=N\O)/C2=N/Nc1ccccc1	> 200 µM
N#CC(C(=O)/C(=N\NC(N)=O)C(C#N)c1ccc(Cl)cc1)c1ccc(Cl)cc1 (stereo not given)	> 603 µM

EC50 in this record for O=c1ccc2nc3cc(Br)ccc3sc-2c1 : > 24.5 µM

EC50 in this record for CCOC(=O)C1Nc2ccccc2[C@H]2OCC[C@@H]12 (stereo not given in full) : > 525 µM

EC50 in this record for N#CCCC1(CCC#N)CCCCCCC(CCC#N)(CCC#N)C(=O)C1=O : > 200 µM

EC50 in this record for CC(C)[Si]1(C(C)C)OCC2OC(n3ccc(=O)[nH]c3=O)C(O)(CO)C2O[Si](C(C)C)(C(C)C)O1 (stereo not given) : > 200 µM

EC50 in this record for [C-]#[O+].[C-]#[O+].[C-]#[O+].[Re].c1ccc2c(c1)[cH-]c1ccccc12 : > 1.66 µM

###

Measured IC50 by item
Tested on: CEM cells HIV-1 protection, formazan growth assay
Experiment: NCI AIDS Antiviral Assay
Settings: measured here: growth of uninfected CEM cells
Give the value, in units of µM, as a plain number.

// known answers, use as guide
Compound	Units Symbol	IC50
COC(OC)C1(c2ccccc2)Oc2ccccc2C1=O (centres undefined)	µM	81.3
CC(=O)NC1C(OC2C(CO)OC(OCC3OC(n4ccc(N)nc4=O)C(O)C3O)C(NC(C)=O)C2O)OC(CO)C(O)C1O (centres undefined)	µM	11.2
CC(=O)Oc1cc(OC(C)=O)c2c(c1C)CC[C@@H]1[C@@H]2CC[C@]2(C)[C@@H](OC(C)=O)CC[C@@H]12	µM	18.2

Now turn to the next compound.
IC50 in this record for CCOC(=O)[C@]12C(=C(c3ccccc3)O[C@H]3C=CCC[C@H]31)C(=O)C(=O)N2c1ccccc1 : 75.9

###

Test system: CEM cells HIV-1 protection, formazan growth assay
Assay: NCI AIDS Antiviral Assay;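 active = compounds giving half or more protection of infected cells from virus-caused growth loss, again on retest; inactive = the rest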
Your answer must be one of the following: Y = active, N = inactive

Illustrative cases are given below, each with its answer.
Compound	Assay Target	Group Label
c1ccc(N2N=NC3C4CCC(C4)C32)cc1 (stereo unspecified)	CEM cells HIV-1 protection, formazan growth assay	N
O=Nc1c2n[nH]c1CCCCCCCCC2	CEM cells HIV-1 protection, formazan growth assay	N
Cc1nc(-c2ccc([N+](=O)[O-])cc2)cn2c1nc1ccccc12	CEM cells HIV-1 protection, formazan growth assay	Y
CN(CCN)[C@H](CSSC[C@@H](c1ccccc1O)N(C)CCN)c1ccccc1O	CEM cells HIV-1 protection, formazan growth assay	N
CC(C)N(C(=O)c1ccc(NCc2cc(O)ccc2O)cc1)C(C)C	CEM cells HIV-1 protection, formazan growth assay	N

*Q* Per the records of this test, what outcome belongs to CC1CCC2C(C(=O)O[C@H]3C4CCO[C@@H](OC5OC(CO)C(O)C(O)C5O)C4[C@@]4(CO)O[C@@H]34)=CO[C@@H](OC3OC(CO)C(O)C(O)C3O)C12 (stereo partly specified) ?
*A* N

*Q* Per the records of this test, what outcome belongs to Nc1nc(NCC2(CO)CCC2)cc(=O)[nH]1 ?
*A* N

*Q* Per the records of this test, what outcome belongs to COC(=O)c1ccc(CCc2cc(O)c(Br)cc2O)cc1 ?
*A* N

*Q* Per the records of this test, what outcome belongs to Cc1nc2cccc(F)c2c(=O)n1C1CCCCNC1=O (stereo unspecified) ?
*A* N

*Q* Per the records of this test, what outcome belongs to Nc1ccccc1C(=O)NNC(=O)c1ccccc1O ?
*A* N

*Q* Per the records of this test, what outcome belongs to NCCCCCCCCCCC(=O)O ?
*A* N

###

Measured IC50 by item
Tested on: CEM cells HIV-1 protection, formazan growth assay
Assay: NCI AIDS Antiviral Assay
Details: measured here: growth of uninfected CEM cells
Give the value, in units of µM, as a plain number.

// known answers, use as guide
Molecule	Assay Target	IC50 [µM]
CCOC(=O)CNC(=O)C(CSSCC(NC(=O)OCc1ccccc1)C(=O)OC)NC(=O)C(NC(=O)OCc1ccccc1)C(C)C (configuration not stated)	CEM cells HIV-1 protection, formazan growth assay	129
Cc1ccc(S(=O)C[C@](NC(=O)OCc2ccccc2)(Sc2ccccc2)C(F)F)cc1 (some centres not stated)	CEM cells HIV-1 protection, formazan growth assay	10.7
C1CN(SSN2CCOCC2)CCO1	CEM cells HIV-1 protection, formazan growth assay	126
CCOC(=O)c1c(NS(=O)(=O)c2ccc(C)cc2)sc(C)c1-c1ccccc1	CEM cells HIV-1 protection, formazan growth assay	21.9

IC50 in this record for Sc1ccc2ccccc2c1CN1CCOCC1 : 32.4

IC50 in this record for O=C(Nc1ccc(N=C(Nc2ccccc2)c2ccccc2)cc1)c1ccc(C(=O)Nc2ccc(N=C(Nc3ccccc3)c3ccccc3)cc2)cc1 : 18.2

IC50 in this record for CC(O)c1ccc[n+](Cc2ccccc2)c1 (configuration not stated) : 776

IC50 in this record for O=C(CCCN1CCC2(CC1)C(=O)NCN2c1ccccc1)c1ccc(F)cc1 : 13.5

IC50 in this record for O=[As](O)(O)c1ccccc1F : 141

IC50 in this record for CCC1(COC(NC(=O)c2ccccc2)(C(F)(F)F)C(F)(F)F)COC1 : 115

IC50 in this record for C[C@H]1C=C2[C@@H]3CC(C)(C(=O)O)CC[C@]3(C)CC[C@]2(C)[C@]2(C)CC[C@H]3C(C)(C)[C@@H](OC(=O)c4cccc5c(=O)c6ccccc6[nH]c45)CC[C@]3(C)[C@@H]12 (some centres not stated) : 35.5
